- Test target: PDGFR-β (Platelet-Derived Growth Factor Receptor β) protein tyrosine kinase (Homo sapiens (Human))
- Sequence (P09619 33-1106): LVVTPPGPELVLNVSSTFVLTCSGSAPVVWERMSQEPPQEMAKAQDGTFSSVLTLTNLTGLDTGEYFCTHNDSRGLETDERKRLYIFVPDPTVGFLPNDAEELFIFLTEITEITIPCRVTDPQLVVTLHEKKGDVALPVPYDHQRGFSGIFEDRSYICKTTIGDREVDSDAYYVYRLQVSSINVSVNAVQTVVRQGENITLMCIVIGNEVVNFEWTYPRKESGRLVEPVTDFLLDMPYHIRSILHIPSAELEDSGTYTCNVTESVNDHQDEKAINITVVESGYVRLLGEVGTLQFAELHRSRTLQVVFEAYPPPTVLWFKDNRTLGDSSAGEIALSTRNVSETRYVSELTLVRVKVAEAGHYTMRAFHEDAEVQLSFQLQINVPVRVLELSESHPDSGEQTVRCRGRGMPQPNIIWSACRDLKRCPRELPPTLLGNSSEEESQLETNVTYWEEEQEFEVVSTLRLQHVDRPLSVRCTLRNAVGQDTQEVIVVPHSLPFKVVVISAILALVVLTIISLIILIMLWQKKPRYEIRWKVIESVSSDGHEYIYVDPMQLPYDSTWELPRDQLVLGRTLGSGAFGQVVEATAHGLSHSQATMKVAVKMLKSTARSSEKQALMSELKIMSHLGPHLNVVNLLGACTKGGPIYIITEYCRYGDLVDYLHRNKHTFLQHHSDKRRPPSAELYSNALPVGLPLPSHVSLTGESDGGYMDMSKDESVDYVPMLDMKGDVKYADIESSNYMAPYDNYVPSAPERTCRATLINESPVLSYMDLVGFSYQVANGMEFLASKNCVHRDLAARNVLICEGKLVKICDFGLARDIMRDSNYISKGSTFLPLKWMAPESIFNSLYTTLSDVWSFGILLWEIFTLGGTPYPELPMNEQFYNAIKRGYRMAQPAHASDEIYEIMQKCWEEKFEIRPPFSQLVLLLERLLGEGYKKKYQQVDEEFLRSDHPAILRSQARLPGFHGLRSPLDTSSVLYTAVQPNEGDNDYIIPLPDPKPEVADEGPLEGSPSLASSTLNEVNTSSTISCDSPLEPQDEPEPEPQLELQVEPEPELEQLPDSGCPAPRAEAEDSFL
pIC50: −log10 of the molar value.
Quantity name: pIC50

Cc1cccc(NC(=O)Nc2ccc(-c3nn(CCCN(C)CCCC(=O)NO)c4ncnc(N)c34)cc2)c1 [Compound IId] | 7.00

I. Cc1cccc(NC(=O)Nc2ccc(-c3nn(CCCN(C)CCCC(=O)NO)c4ncnc(N)c34)cc2)c1 [Compound IIc]
II. Cc1cccc(NC(=O)Nc2ccc(-c3nn(CCCCCCCC(=O)NO)c4ncnc(N)c34)cc2)c1 [Compound IIa]
III. Cc1ccc(F)c(NC(=O)Nc2ccc(-c3nn(CCCCCCCC(=O)NO)c4ncnc(N)c34)cc2)c1 [Compound IIb]
IN: Give the ascending ranking of the items by reported pIC50. // format: requested-order list of labels
OUT: I, II, III
(I: 6.84, II: 8.54, III: 9.30)

###

// each record: one item and its IC50 for Human HDAC1 (Homo sapiens (Human))
Quantity name: IC50 (µM)

I. Cc1cccc(NC(=O)Nc2ccc(-c3nn(CCCN(C)CCCC(=O)NO)c4ncnc(N)c34)cc2)c1
II. Cc1ccc(F)c(NC(=O)Nc2ccc(-c3nn(CCCCCCCC(=O)NO)c4ncnc(N)c34)cc2)c1
IN: Which item exceeds the other in IC50, I or II ? Could you answer with the label of the item you picked?
OUT: I
